# assay_target: fat mass and obesity-associated protein (FTO) (Homo sapiens, UniProt Q9C0B1)
# Sequence (Q9C0B1 whole entry): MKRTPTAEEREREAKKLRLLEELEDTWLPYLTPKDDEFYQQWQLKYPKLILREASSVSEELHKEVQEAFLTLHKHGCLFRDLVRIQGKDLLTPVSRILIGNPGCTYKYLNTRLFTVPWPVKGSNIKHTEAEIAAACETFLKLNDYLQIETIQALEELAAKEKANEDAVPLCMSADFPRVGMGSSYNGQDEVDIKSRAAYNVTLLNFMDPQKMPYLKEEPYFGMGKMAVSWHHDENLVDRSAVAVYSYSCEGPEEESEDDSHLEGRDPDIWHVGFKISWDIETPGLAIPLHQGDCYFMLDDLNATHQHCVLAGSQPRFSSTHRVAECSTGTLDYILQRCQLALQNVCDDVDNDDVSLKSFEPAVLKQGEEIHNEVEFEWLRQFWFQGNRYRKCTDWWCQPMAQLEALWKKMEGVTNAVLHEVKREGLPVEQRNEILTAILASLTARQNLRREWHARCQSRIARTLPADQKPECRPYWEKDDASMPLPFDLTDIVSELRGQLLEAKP
quantity_name: IC50

Lookup: Give fat mass and obesity-associated protein (FTO) (Homo sapiens, UniProt Q9C0B1) IC50 for COc1c(C)cnc(Cn2cc(CNC(=O)c3c(F)c(F)c(F)c(F)c3F)nn2)c1C [C6]
Found: 780 nM

Hello, the source for this data is paper PMC9291647, in case you need it.
